Where these numbers come from: PubChem BioAssay AID686978

assay: qHTS for Inhibitors of human tyrosyl-DNA phosphodiesterase 1 (TDP1): qHTS in cells in absence of CPT; conditions: DT40 Tdp1-/- hTDP1 cells, no CPT, ATP luminescence, 48 h; note: nearly all actives have a fitted effect of over 55% in size
Among all 420,000 compounds or so, about 64,000 (15%) were called active. Inconclusive results (about 27%) are left out. Calls come from the whole dose curve; as a rule, active = well fitted inhibition curve with a large enough effect; inconclusive = small, poorly fitted or top-dose-only effect; inactive = flat fitted curve, though single readings scatter. Not all results are given here.
# output must be one of label 1 (active), label 0 (inactive)

Cc1ccc(/C=N/NC(=O)Cn2nc(C)c(Br)c2C)o1	label 0
CC(=O)NCC(=O)NC1CCCc2c1cnn2-c1ccccc1F (configuration not stated)	label 0
CN(C)S(=O)(=O)c1cccc(C(=O)Nc2cccnc2)c1	label 0
CCC1CCCCN1C(=O)Cn1c(=O)n(CCCCCC(=O)NCc2ccccc2)c(=O)c2sccc21 (configuration not stated)	label 1

Please indicate how the test categorized C/C(CC(C)C)=N\Oc1nc(C)cc(C)n1 . label 0

Please indicate how the test categorized CC(=O)Nc1cccc(OCC(=O)/C=C2\N(C)c3ccccc3C2(C)C)c1 . label 1

Please indicate how the test categorized CC(C)C(C(=O)NC1CCCCC1)N(CC1CCCO1)C(=O)CNS(=O)(=O)c1ccc(F)cc1 (configuration not stated) . label 0

Please indicate how the test categorized CCOc1ccc(S(=O)(=O)Nc2ccc(OC)nc2)cc1 . label 1

Please indicate how the test categorized CCCc1ccc(OCC(O)CN2CCN(C(=O)OCC)CC2)cc1 (configuration not stated) . label 0

Please indicate how the test categorized Cc1ccc(C(=O)Nc2ccccc2C(=O)NC2CCCCC2)cc1S(=O)(=O)N1CCOCC1 . label 1

Please indicate how the test categorized Cc1ccc(/C=N/NC(=S)Nc2cccc(S(=O)(=O)N(C)C)c2)o1 . label 1

Please indicate how the test categorized Cc1ccc(NC(=O)c2ccccn2)cc1S(=O)(=O)N1CCOCC1 . label 0

---

assay: qHTS for Inhibitors of human tyrosyl-DNA phosphodiesterase 1 (TDP1): qHTS in cells in absence of CPT; conditions: DT40 Tdp1-/- hTDP1 cells, no CPT, ATP luminescence, 48 h; note: nearly all actives have a fitted effect of over 55% in size
Out of some 420,000 compounds screened, about 64,000 (15%) were called active. Inconclusive results (about 27%) are left out. Calls come from the whole dose curve; as a rule, active = well fitted inhibition curve with a large enough effect; inconclusive = small, poorly fitted or top-dose-only effect; inactive = flat fitted curve, though single readings scatter. Only a sample is shown.
# output must be one of active, inactive

Consider the worked cases shown below.
Cn1c(=O)c2c(ncn2CC(=O)N/N=C/c2cn[nH]c2-c2ccc(F)cc2)n(C)c1=O	inactive
Cc1noc(C)c1CCC(=O)N1CCCC(CO)(Cc2ccccc2)C1 (stereo unspecified)	inactive
O=C(Nc1ccc(C2CC2(Cl)Cl)cc1)c1cccc([N+](=O)[O-])c1 (stereo unspecified)	active
Fc1cccc(Cl)c1CSc1ccc(-c2ccco2)nn1	inactive
Cc1ccc(S(=O)(=O)N2CCN(C(=O)CCC(=O)NC3CCCc4ccccc43)CC2)cc1 (stereo unspecified)	inactive
Cc1cccc(N(Cc2ccccc2)C(=O)c2cc(S(=O)(=O)N3CCOCC3)ccc2F)c1	active
Cc1ccc(C(=O)NC(C)C(c2cccs2)N2CCOCC2)cc1C (stereo unspecified)	active
O=C(NCC1CCCO1)c1cc2c(s1)CCCC2 (stereo unspecified)	inactive

Please indicate how the test categorized CC(OC(=O)c1c(F)cccc1F)C(=O)NCCC1=CCCCC1 (stereo unspecified) . inactive

Please indicate how the test categorized O=C(Nc1nnc(SCc2ccccc2Cl)s1)c1cccc([N+](=O)[O-])c1 . inactive

Please indicate how the test categorized CC(C)CN1C(=O)CN(S(C)(=O)=O)CC1(C)C(=O)NCc1ccccc1 (stereo unspecified) . inactive

Please indicate how the test categorized COc1ccc(C(=O)N(C)Cc2ccc(OC)c(OC)c2OC)cc1S(=O)(=O)N1CCOCC1 . inactive

Please indicate how the test categorized COc1cc(/C=C/C(=O)OCC(=O)N2CCOCC2)ccc1OCC#N . inactive

---

assay: qHTS for Inhibitors of human tyrosyl-DNA phosphodiesterase 1 (TDP1): qHTS in cells in absence of CPT; conditions: DT40 Tdp1-/- hTDP1 cells, no CPT, ATP luminescence, 48 h; note: nearly all actives have a fitted effect of over 55% in size
About 64,000 (15%) of roughly 420,000 compounds were called active. Another 27% or so got no clear call; they are omitted. The call rests on the fitted dose curve; in most records, active means well fitted inhibition curve with a large enough effect; inconclusive means small, poorly fitted or top-dose-only effect; inactive means flat fitted curve, though single readings scatter. These entries were drawn from the full list.
# output must be one of true (active), false (inactive)

Consider the worked cases shown below.
COc1cc(OC)c(N2CC(C(=O)Nc3cc(Cl)ccc3N3CCOCC3)CC2=O)cc1Cl (stereo unspecified)	true
O=S1(=O)CC/C(=N\Nc2ccc(F)cc2)c2ccsc21	false
CCCOc1ccc(N/C=C/C(=O)C(C)(C)C)cc1	false
O=C(NCc1ccco1)c1ccc(CS(=O)(=O)Cc2ccc(F)cc2)o1	false
Cc1ccc(CNC(=O)c2ccc(CS(=O)Cc3cccc(Cl)c3)o2)cc1 (stereo unspecified)	false
CC(C)NS(=O)(=O)c1ccc(OCC(=O)Nc2ccc3c(c2)OCCO3)cc1	false
COC(=O)c1c(NC(=O)c2cc(=O)c3c(C)cc(C)cc3o2)sc2c1CCCC2	false
Cn1cnnc1Sc1ccc(S(C)(=O)=O)cc1[N+](=O)[O-]	false

Please indicate how the test categorized CCOC(=O)c1c(NC(=O)NC(C)(C)C)sc2c1CCN(C)C2 . false

Please indicate how the test categorized CNc1ccc([N+](=O)[O-])cc1C(=O)O . false

Please indicate how the test categorized Cc1cc(C)c2c(c1)c(C)cc1nnc(SCC(=O)NCc3ccco3)n12 . false

Please indicate how the test categorized COc1ccc(/C(N)=N/OC(=O)Cc2ccccc2)cc1 . false

Please indicate how the test categorized CN[C@@H]1[C@H](O[C@H]2[C@H](O[C@H]3[C@H](O)[C@@H](O)[C@H](N=C(N)N)[C@@H](O)[C@@H]3N=C(N)N)O[C@@H](C)[C@]2(O)CO)O[C@@H](CO)[C@H](O)[C@H]1O . false

---

experiment: qHTS for Inhibitors of human tyrosyl-DNA phosphodiesterase 1 (TDP1): qHTS in cells in absence of CPT; conditions: DT40 Tdp1-/- hTDP1 cells, no CPT, ATP luminescence, 48 h; note: nearly all actives have a fitted effect of over 55% in size
Screen size: about 420,000 compounds; about 64,000 (15%) were called active. Inconclusive results (about 27%) are left out. Calls follow the shape of the dose curve; as a rule, active = well fitted inhibition curve with a large enough effect; inconclusive = small, poorly fitted or top-dose-only effect; inactive = flat fitted curve, though single readings scatter. A selection follows.
# output must be one of active, inactive

Consider the worked cases shown below.
COc1cc2nnn(-c3ccncc3)c2cc1OC	inactive
CC(=O)N1CCN(C(=O)C2(NC(=O)Nc3ccc(C)cc3)CCCCC2)CC1	inactive
COc1c(O)cccc1-c1nnn(CCC(=O)OCC(=O)c2ccccc2)n1	inactive

Please indicate how the test categorized CC1(C)C(c2cccs2)=[N+]([O-])C2(CCCCC2=O)N1O (stereo not given) . inactive

Please indicate how the test categorized CC(=O)Nc1ccc(NC(=O)[C@@H](NC(=O)c2cccc(C)c2)C(C)C)cc1 . inactive

Please indicate how the test categorized CCN(CC)C(=O)Cn1cc(S(=O)(=O)CC(=O)NCc2ccc3c(c2)OCO3)c2ccccc21 . inactive

Please indicate how the test categorized Cc1nnc(NC2=NCCCCC2)o1 . inactive

Please indicate how the test categorized COc1ccc(F)cc1S(=O)(=O)Nc1ccc2c(c1)OCO2 . inactive

---

Assay: qHTS for Inhibitors of human tyrosyl-DNA phosphodiesterase 1 (TDP1): qHTS in cells in absence of CPT; note: nearly all actives have a fitted effect of over 55% in size
Conditions: DT40 Tdp1-/- hTDP1 cells, no CPT, ATP luminescence, 48 h
Procedure: Human tyrosyl-DNA phosphodiesterase 1 (TDP1) is a novel repair gene, and we propose to use it as a new target for anticancer drug development. […] For the primary screen, Tdp1-/-;hTDP1 cells will be exposed to small molecules in the presence or absence of CPT, and their growth kinetics will be evaluated after 48 hours by measuring ATP activity. […] The hit compounds will then be evaluated in the presence or absence of CPT using Tdp1-/- cells. […]
About 64,000 (15%) of roughly 420,000 compounds were called active. Another 27% or so got no clear call; they are omitted. The call rests on the fitted dose curve; in most records, active means well fitted inhibition curve with a large enough effect; inconclusive means small, poorly fitted or top-dose-only effect; inactive means flat fitted curve, though single readings scatter. The list is a sample of the results.
# output must be one of label 1 for active, label 0 for inactive

Consider the worked cases shown below.
CC(=O)OC(C(=O)NC1CCCCC1)c1ccccc1 (stereo unspecified)	label 0
CCn1c(=O)cc(OCC(=O)NCCCN2CCN(c3cccc(Cl)c3)CC2)c2ccccc21	label 1
Cc1ccc(N2C(=O)C3C4C=CC(CC4)C3C2=O)cc1Cl (stereo unspecified)	label 0
CN(C)S(=O)(=O)c1cccc(C(=O)OCC(=O)N2CCCC2=O)c1	label 0
Cc1ccc(C)c(N2CCN(C(=O)Cc3c(C(=O)O)c(C)cn3C)CC2)c1	label 0

Please indicate how the test categorized CC(=O)c1ccc(NC(=O)c2sc3nc4n(c(=O)c3c2C)CCCCC4)cc1 . label 1

---

assay: qHTS for Inhibitors of human tyrosyl-DNA phosphodiesterase 1 (TDP1): qHTS in cells in absence of CPT; details: DT40 Tdp1-/- hTDP1 cells, no CPT, ATP luminescence, 48 h; note: nearly all actives have a fitted effect of over 55% in size
The campaign covered roughly 420,000 compounds. About 64,000 (15%) were called active. Inconclusive results (about 27%) are left out. The call rests on the fitted dose curve; in most records, active means well fitted inhibition curve with a large enough effect; inconclusive means small, poorly fitted or top-dose-only effect; inactive means flat fitted curve, though single readings scatter. Only a sample is shown.
# output must be one of Yes (active), No (inactive)

O=C1CC[C@@H](C(=O)N2CSC[C@@H]2C(=O)Nc2ccc(C(F)(F)F)cc2)N1	No
O=C(CN1C(=O)/C(=C\c2ccc(C(F)(F)F)cc2)Sc2ccccc21)NCc1ccco1	Yes

Please indicate how the test categorized O=c1c(-c2ccc(Cl)cc2)[n+]([O-])c2ccccc2n1OCc1nc2ccccc2[nH]1 . No
